The measurements presented in this section are drawn from the NIST ThermoML archive (doi:10.1021/acs.jced.8b00755).

test: xn = mol fraction of the nth substance listed; conditions: 298.15 K; 101.3 kPa; Liquid; Vibrating tube method; x2 = 0.2
propertyName: mass density (kg/m3)

O=C1CCCCC1 [cyclohexanone] + CCCCO    922.35
O=C1CCCCC1 [cyclohexanone] + CCCCCCCCO    908.6
O=C1CCCCC1 [cyclohexanone] + CCO    930.92
O=C1CCCCC1 [cyclohexanone] + CCCCCCCCCCO    904.8
O=C1CCCCC1 [cyclohexanone] + CCCCCCO    912.83

----------
conditions: 298.15 K; 101.3 kPa; Liquid; Vibrating tube method
propertyName: mass density (kg/m3)

CCCCCCCCO    821.98
CCCCCCO    815.99
CCO    785.26
CCCCCCCCCCO    826.71
CCCCO    805.92
O=C1CCCCC1    942.47
